Values compiled from patent US20040039053A1.

# subject.of.test: CYP2C19 (Homo sapiens)
# Sequence (P33261 whole entry, canonical isoform): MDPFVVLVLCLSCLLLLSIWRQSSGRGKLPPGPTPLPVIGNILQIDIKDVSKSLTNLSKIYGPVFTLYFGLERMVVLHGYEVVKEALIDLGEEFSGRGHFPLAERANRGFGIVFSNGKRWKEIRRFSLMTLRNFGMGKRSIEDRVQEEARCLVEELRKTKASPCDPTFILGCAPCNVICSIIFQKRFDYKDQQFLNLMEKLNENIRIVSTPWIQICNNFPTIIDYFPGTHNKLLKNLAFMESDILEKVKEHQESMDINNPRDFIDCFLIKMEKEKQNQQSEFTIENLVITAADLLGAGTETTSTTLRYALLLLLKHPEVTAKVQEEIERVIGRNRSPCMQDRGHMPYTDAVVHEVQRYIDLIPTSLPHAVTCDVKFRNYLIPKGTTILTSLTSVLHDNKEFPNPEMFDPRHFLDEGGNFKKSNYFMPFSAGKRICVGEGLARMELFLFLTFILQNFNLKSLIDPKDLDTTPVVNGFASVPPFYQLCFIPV
# assay.name: Cytochrome P450 isoform inhibition in human hepatic microsomes, S-mephenytoin (Example 18)
# Assay type: in vitro ADME
# setup.conditions: both sexes, human, pooled human hepatic microsomes, probe S-mephenytoin 50 μM; positive control 10 μM
readout.type: inhibition at 30 min, 10 μM (%)
I only need the number, in %, no unit after it.

Output inhibition at 30 min, 10 μM of COc1ccc2[nH]c([S+]([O-])Cc3ncc(C)c(OC)c3C)nc2c1 (stereo not shown) [OMP, omeprazole, reference compound]
50

* * *

# subject.of.test: CYP2C9 (Homo sapiens, UniProt P11712)
# Sequence (P11712 whole entry): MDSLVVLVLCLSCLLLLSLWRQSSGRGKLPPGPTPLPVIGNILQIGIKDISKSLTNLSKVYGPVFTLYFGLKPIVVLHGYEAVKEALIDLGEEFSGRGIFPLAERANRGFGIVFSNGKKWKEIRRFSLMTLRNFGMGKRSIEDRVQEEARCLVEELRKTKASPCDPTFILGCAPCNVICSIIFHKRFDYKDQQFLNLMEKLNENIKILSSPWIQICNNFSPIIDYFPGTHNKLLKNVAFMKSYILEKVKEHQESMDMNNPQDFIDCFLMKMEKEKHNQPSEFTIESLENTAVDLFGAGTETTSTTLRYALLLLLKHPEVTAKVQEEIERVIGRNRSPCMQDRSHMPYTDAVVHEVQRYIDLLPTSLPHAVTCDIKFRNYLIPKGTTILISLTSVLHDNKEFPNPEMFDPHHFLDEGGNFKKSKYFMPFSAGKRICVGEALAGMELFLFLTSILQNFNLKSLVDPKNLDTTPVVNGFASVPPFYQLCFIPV
# assay.name: in vitro
# setup.conditions: both, microsomes
readout.type: inhibition at 40 min, 10 μM (%)
Numbers only; they are read as %.

Give me measured inhibition at 40 min, 10 μM, please, for this molecule: O=C(O)C(Oc1cccc(C(F)(F)F)c1)c1ccc(Cl)cc1 (single isomer, unassigned; (-)) [(−) halofenic acid]
47

* * *

# Tested on: C57BL/6J ob/ob mice
# assay.name: Glucose lowering activity of halofenate analogs in ob/ob mice (Example 12)
# Assay type: in vivo
# setup.conditions: single oral dose 150 mg/kg
Recorded time points with significantly reduced plasma glucose for the following molecules
Give just the numeric value; h need not be written.

Look over these answered cases.
molecule	observed.result
CN(C)C(=O)COC(=O)C(Oc1cccc(C(F)(F)F)c1)c1ccc(Cl)cc1 (single isomer, unassigned; (-)) [(−)Analog 38]	6
CC(=O)NCCOC(=O)C(Oc1cccc(C(F)(F)F)c1)c1ccc(Br)cc1 (single isomer, unassigned; (-)) [(−)Analog 29]	6
NC(=O)COC(=O)C(Oc1cccc(C(F)(F)F)c1)c1ccc(Cl)cc1 (single isomer, unassigned; (-)) [(−)Analog 37]	6

Moving on to the next molecule.
Indicate its recorded time points with significantly reduced plasma glucose; the molecule in question is O=C(NCCOC(=O)C(Oc1cccc(C(F)(F)F)c1)c1ccc(Cl)cc1)c1ccccc1 (single isomer, unassigned; (-)) [(−)Analog 36]
6

* * *

# assay.name: Pharmacokinetic study in SD rats, chiral HPLC of plasma halofenic acids (Example 14)
# Format: in vivo
# setup.conditions: male, SD, rat, plasma, oral, 50 mg/kg, single oral dose of (−) halofenate 50 mg/kg, rat 8
readout.type: concentration at 120 h (ng/mL)
The reply should contain only the number, in ng/mL.

Give the reported value of concentration at 120 h for this record: O=C(O)C(Oc1cccc(C(F)(F)F)c1)c1ccc(Cl)cc1 (single isomer, unassigned; (-)) [(−) halofenic acid]
20300

* * *

# assay.name: Pharmacokinetic study in SD rats, chiral HPLC of plasma halofenic acids (Example 14)
# Type: in vivo
# setup.conditions: male, SD, rat, plasma, oral, 50 mg/kg, single oral dose of (−) halofenate 50 mg/kg, individual rats 8, 11
readout.type: concentration at 96 h (ng/mL)
Provide the reading as a plain figure in ng/mL.

Return reported concentration at 96 h. Input molecule: O=C(O)C(Oc1cccc(C(F)(F)F)c1)c1ccc(Cl)cc1 (single isomer, unassigned; (-)) [(−) halofenic acid]
31100

* * *

# subject.of.test: CYP3A4 (Homo sapiens, UniProt P08684)
# Sequence (P08684 whole entry): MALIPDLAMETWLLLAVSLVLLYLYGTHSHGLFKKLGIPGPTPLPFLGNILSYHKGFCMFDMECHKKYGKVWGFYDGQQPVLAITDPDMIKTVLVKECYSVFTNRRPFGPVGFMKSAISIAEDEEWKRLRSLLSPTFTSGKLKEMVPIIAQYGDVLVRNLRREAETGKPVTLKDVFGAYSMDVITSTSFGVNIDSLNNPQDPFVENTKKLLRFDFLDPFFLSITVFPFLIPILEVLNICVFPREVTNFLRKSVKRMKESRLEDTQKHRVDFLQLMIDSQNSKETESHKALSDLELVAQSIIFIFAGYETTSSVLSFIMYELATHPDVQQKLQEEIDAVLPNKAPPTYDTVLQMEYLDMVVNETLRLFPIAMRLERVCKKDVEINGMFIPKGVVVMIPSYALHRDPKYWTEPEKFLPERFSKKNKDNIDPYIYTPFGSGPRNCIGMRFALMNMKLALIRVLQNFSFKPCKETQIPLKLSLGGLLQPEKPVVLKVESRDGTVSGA
# assay.name: in vitro
# setup.conditions: both, microsomes
readout.type: inhibition at 10 min, 10 µM (%)
Write down the numeric answer in % and omit the unit.

Please list inhibition at 10 min, 10 µM recorded for the molecule O=C(O)C(Oc1cccc(C(F)(F)F)c1)c1ccc(Cl)cc1 (single isomer, unassigned; (-)) [(−) halofenic acid]
1.3
